# target.or.test.system: DCN1 (Homo sapiens (Human), UniProt Q96GG9)
# Sequence (Q96GG9 58-259): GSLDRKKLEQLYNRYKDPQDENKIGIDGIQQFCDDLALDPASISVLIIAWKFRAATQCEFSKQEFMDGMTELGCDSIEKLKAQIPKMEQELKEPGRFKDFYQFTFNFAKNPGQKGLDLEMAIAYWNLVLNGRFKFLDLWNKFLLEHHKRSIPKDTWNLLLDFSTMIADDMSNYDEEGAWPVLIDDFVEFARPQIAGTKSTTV
# experiment.notes: Competitive FP binding assay
# condition.description: read-out: Binding affinity to DCN1 (IC50 (nM))
Square brackets hold non-standard residues; d marks the D form. Peptide text beside a SMILES is read from it. * marks the point of attachment. Ala(6-iPr-benzothiazol-2-yl) = CC(C)c1ccc2nc(C[C@H](N)C(=O)O)sc2c1; tBuAla = CC(C)(C)C[C@H](N)C(=O)O; Propionyl = CCC(=O)*
measured.attribute: log10 of IC50 (log10 of the value in nM)

{"columns": ["compound", "log10 of IC50"],
 "data": [
  ["CCC(=O)N[C@@H](Cc1nc2cc(Cl)ccc2o1)C(=O)N[C@H](C(=O)N[C@@H](CCCCN)C(=O)NC(c1ccccc1)c1ccccc1)[C@@H](C)CC", 3.08],
  ["CCC(=O)N[C@@H](Cc1nc2ccc(C)cc2s1)C(=O)N[C@H](C(=O)N[C@@H](CCCCN)C(=O)N[C@@H]1CCOc2ccccc21)C1CCCC1", 1.96],
  ["CCC(=O)N[C@@H](Cc1nc2ccc(C(C)C)cc2s1)C(=O)N[C@@H](CC(C)(C)C)C(=O)N[C@@H](CCCCN)C(=O)N[C@@H](CC(C)C)C(N)=O [Example 283] (Propionyl-[Ala(6-iPr-benzothiazol-2-yl)][tBuAla]KL-NH2)", 1.92],
  ["CC[C@H](C)[C@H](NC(=O)[C@H](Cc1nc2ccc(C(C)C)cc2s1)NC(C)=O)C(N)=O", 3.02],
  ["CCC(=O)N[C@@H](Cc1nc2ccc(Cl)c(Cl)c2s1)C(=O)N[C@H](CN)Cc1ccccc1", 2.47]
]}

----------
# target.or.test.system: DCN1 (Homo sapiens (Human))
# experiment.notes: Competitive FP binding assay
# condition.description: read-out: Binding affinity to DCN1 (IC50 (nM))
Recorded measurements of IC50, one per entry
measured.attribute: IC50 (nM)

{"columns": ["compound", "measurement.unit", "observed"],
 "data": [
  ["CCC(=O)N[C@@H](Cc1nc2ccc(C(C)C)cc2s1)C(=O)N[C@H](CNC(=O)C12CCN(CC1)CC2)C1CCCCC1 [Example 64]", "nM", 36],
  ["CCC(=O)N[C@@H](Cc1nc2ccc(Cl)cc2s1)C(=O)N[C@@H](Cc1ccccn1)C(=O)N[C@@H](CCCCN)C(=O)N[C@@H]1CCOc2ccccc21 [Example 202]", "nM", 251],
  ["CCC(=O)N[C@@H](Cc1nc2ccc(CC)cc2s1)C(=O)N[C@H](C(=O)N[C@@H](CCCCN)C(=O)NC(c1ccccc1)c1ccccc1)C1CCCC1 [Example 174]", "nM", 77.5],
  ["CCC(=O)N[C@@H](Cc1nc2ccc(OC)cc2o1)C(=O)N[C@H](C(=O)N[C@@H](CCCCN)C(=O)NC(c1ccccc1)c1ccccc1)[C@@H](C)CC [Example 157]", "nM", 265],
  ["CCC(=O)N[C@@H](Cc1ccc2ccccc2c1)C(=O)N[C@H](C(=O)N[C@@H](CCCCN)C(=O)N[C@@H]1CCOc2ccccc21)[C@@H](C)CC [Example 17]", "nM", 651],
  ["CCC(=O)N[C@@H](Cc1nc2ccc(C(C)C)cc2s1)C(=O)N[C@H](CN)C1CCCCC1 [Example 56]", "nM", 79.6],
  ["CCC(=O)N[C@@H](Cc1nc2ccc(Cl)cc2s1)C(=O)N[C@H](C(=O)N[C@@H](CCCCN)C(=O)NC(c1ccc(F)cc1)c1ccc(F)cc1)C1CCCC1 [Example 158]", "nM", 307],
  ["CCC(=O)N[C@@H](Cc1nc2ccc(C)cc2s1)C(=O)N[C@@H](C[C@H]1CC[C@H](CN)CC1)C(=O)N[C@@H](CCCCN)C(=O)N[C@@H]1CCOc2ccccc21 [Example 185]", "nM", 111],
  ["CCC(=O)N[C@@H](Cc1ccc2ccccc2c1)C(=O)N[C@@H](CC(C)(C)C)C(=O)N[C@@H](CCCCN)C(=O)NC(c1ccccc1)c1ccccc1 [Example 22]", "nM", 361],
  ["CCC(=O)N[C@@H](Cc1ccc2ccccc2c1)C(=O)N[C@H](C(=O)N[C@@H](CCCCN)C(=O)N[C@@H]1CCOc2ccccc21)C1CCCC1 [Example 149]", "nM", 378],
  ["CCC(=O)N[C@@H](Cc1ccc2ccccc2c1)C(=O)N[C@H](C(=O)N[C@@H](CCCCN)C(=O)NC(c1ccccc1)c1ccccc1)C1CCCC1 [Example 19]", "nM", 270]
]}

----------
# target.or.test.system: UniProt:Q96GG9
# experiment.notes: Competitive FP binding assay
# condition.description: read-out: Binding affinity to DCN1 (IC50 (nM))
Hi! Just check whether IC50 is below 100 nM. Below gives satisfied, equal or above gives not satisfied.

{"columns": ["input.smiles", "assigned.class"],
 "data": [
  ["CCCC(=O)N[C@@H](Cc1nc2ccc(C(C)C)cc2s1)C(=O)N[C@H](CN)[C@@H](C)CC", "not satisfied"],
  ["CCC(=O)N[C@@H](Cc1nc2ccc(C(C)C)cc2s1)C(=O)N[C@H](CNS(=O)(=O)C1CCN(C)CC1)C1CCCCC1", "satisfied"],
  ["CCC(=O)N[C@@H](Cc1nc2ccc(C(C)C)cc2s1)C(=O)N[C@H](CNC(=O)CCCN1CCOCC1)C1CCCCC1", "satisfied"],
  ["CCC(=O)N[C@@H](Cc1nc2ccc(Cl)cc2s1)C(=O)N[C@H](C(=O)N[C@@H](CCCCN(C)C)C(=O)N[C@@H]1CCOc2ccccc21)C1CCOCC1", "not satisfied"],
  ["CCC(=O)N[C@@H](Cc1nc2cccc(Cl)c2s1)C(=O)N[C@H](C(=O)N[C@@H](CCCCN)C(=O)NC(c1ccccc1)c1ccccc1)C1CCCC1", "not satisfied"]
]}
